# System: U251 CNS
# protocol notes: NCI tumour cell line growth inhibition, 48 h
Please go through the items and note down their TGI.

Would you please look over these solved cases?
molecule: Cc1[nH]nc2c1N=C(c1ccccc1Cl)c1cc([N+](=O)[O-])ccc1N2
endpoint: TGI
observed value: > 25 µM

molecule: CC1(CC2=C(C(=O)NCCO[Si](C)(C)C(C)(C)C)C3(OCCO3)C2=O)OCCO1
endpoint: TGI
observed value: > 100 µM

molecule: O=C(OCc1ccccc1)N1CCN(C(=O)OCc2ccccc2)CCN(C(=O)OCc2ccccc2)CCN(C(=O)OCc2ccccc2)CCN(C(=O)OCc2ccccc2)CC1
endpoint: TGI
observed value: > 100 µM

Dear colleague, could you please provide TGI for the molecules listed below?
1. COc1cc2c(c(OC)c1OC)-c1ccc(OC)c(=O)cc1[C@@H](N(C)C=O)CC2
2. CC(=O)/C=C/c1ccc(C)cc1
3. Clc1ccc(Nc2ccnc(NCCCNc3ccnc4cc(Cl)ccc34)n2)cc1
4. COc1ccc(-c2csc(NC(=O)c3cc(O)c(O)c(O)c3)n2)cc1

Result:
1. > 4.68 µM
2. > 100 µM
3. 2.91 µM
4. > 33.3 µM

Dear colleague, could you please provide TGI for the molecules listed below?
1. COc1ccc2c(c1)C1(C(=O)N2)C(C#N)=C(c2ccccc2)Nc2c1c(-c1ccccc1)nn2-c1ccccc1 (centres undefined)
2. COc1ccc2c(c1)/C(=C/c1cc(OC)c(OC)c(OC)c1)C(=O)N2C

Result:
["7.12 µM", "4.83 µM"]
